Below, each entry is listed alongside its reported kon.
Biological target: T1, recombinant cynomolgus monkey IL-13 (cynomolgus monkey, UniProt Q0PW92 21-132)
T1 construct: bought; also called rc-IL-13; cIL-13
T1 sequence (Q0PW92 entry or part of it): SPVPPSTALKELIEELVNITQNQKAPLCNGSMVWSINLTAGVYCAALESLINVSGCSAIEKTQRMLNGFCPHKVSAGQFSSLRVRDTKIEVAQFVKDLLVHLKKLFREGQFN
Assay: SPR

[
  {
    "binder": "BDG38.081 (antibody, V domains shown, IgG1) VH: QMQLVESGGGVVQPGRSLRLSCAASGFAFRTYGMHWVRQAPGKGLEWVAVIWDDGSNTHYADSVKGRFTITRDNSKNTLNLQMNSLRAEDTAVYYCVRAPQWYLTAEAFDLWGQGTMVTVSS VL: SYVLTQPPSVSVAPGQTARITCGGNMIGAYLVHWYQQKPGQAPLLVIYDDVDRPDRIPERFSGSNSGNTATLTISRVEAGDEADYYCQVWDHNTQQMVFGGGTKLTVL",
    "scaleUnit": "M⁻¹ s⁻¹",
    "kon": "8e+06"
  },
  {
    "binder": "BDG38.140 (antibody, V domains shown, IgG1) VH: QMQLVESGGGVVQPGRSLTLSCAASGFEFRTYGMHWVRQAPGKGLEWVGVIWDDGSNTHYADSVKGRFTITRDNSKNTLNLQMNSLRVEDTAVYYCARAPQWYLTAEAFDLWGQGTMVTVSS VL: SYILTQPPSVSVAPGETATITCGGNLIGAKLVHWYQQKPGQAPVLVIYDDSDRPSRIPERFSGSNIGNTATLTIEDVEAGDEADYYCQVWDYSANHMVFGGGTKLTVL",
    "scaleUnit": "M⁻¹ s⁻¹",
    "kon": "5.54e+07"
  }
]

Data provenance: patent US20240059769A1
